- Tested on: Tov112D
- procedure text: Primary qHTS to identify gynecologic anti-cancer compounds using libraries of approved drugs and bioactive compounds (AID 1345084); also: nearly all actives have a fitted effect of over 55% in size
- condition set: Gynecologic cancer cell panel viability, ATPlite luminescence, 48 h; series mostly up to 57.5 µM
Inconclusive results are not listed. Calls of active or inactive are those of the source. Calls follow the shape of the dose curve; as a rule, active = well fitted cell-killing curve with a large enough effect; inconclusive = small, poorly fitted or top-dose-only effect, or effect the other way; inactive = flat fitted curve, though single readings scatter.
Choose the fitting class; nothing outside y for active, n for inactive is accepted.

Worked examples, 2 molecules total:
C=C1C(=O)OC2C1CCC1(C)C(O)CC=C(C)C21 (centres undefined)    n
C=C1/C(=C/C=C2\CCC[C@@]3(C)C2CCC3[C@H](C)/C=C/[C@@H](O)C2CC2)C[C@@H](O)C[C@@H]1O (some centres undefined)    n

QUERY: I'd appreciate the recorded outcome for `OC(c1ccc(-c2ccc(CN3CCN(Cc4ccncc4)CC3)cc2)c(F)c1)(C(F)(F)F)C(F)(F)F` from this test.
RESULT: n

QUERY: Could you please tell me the result logged for `CC(C)(O)c1ccc2c(c1)ncn2-c1cccc(-c2ccccc2C#N)c1` in this assay?
RESULT: n

QUERY: Hello, I am checking results. What call was entered for `O=C(O)c1cc(N(Cc2ccc(C3CCCCC3)cc2)C(=O)c2ccc(Oc3ccccc3)cc2)ccc1O` ?
RESULT: n

QUERY: How was `Cc1c(Cl)cccc1S(=O)(=O)Nc1nc(NCCc2ccccc2)nc2c1CN(Cc1ccccc1)CC2` classified in this test?
RESULT: n

QUERY: Which result was noted for this molecule in the test: `Cc1nc(C#Cc2ccnc(Cl)c2)c(C)n1-c1ccc(OC(F)(F)F)cc1`
RESULT: n

QUERY: Recorded test call requested for O=C(OC1CN2CCC1CC2)N1CCc2ccccc2C1c1ccccc1 (centres undefined)
RESULT: n

QUERY: Status in this test for C[C@@H]1O[C@@H](O[C@H]2[C@H](OC(=O)[C@]34CCC(C)(C)C[C@H]3C3=CCC5[C@@]6(C)C[C@H](O)[C@H](O[C@@H]7O[C@H](CO)[C@@H](O)[C@H](O)[C@H]7O)[C@](CO)(C(=O)O)C6CC[C@@]5(C)[C@]3(C)C[C@H]4O)OC[C@H](O)[C@@H]2O)[C@H](O)[C@H](O)[C@H]1O[C@@H]1OC[C@@H](O)[C@H](O[C@@H]2OC[C@](O)(CO)[C@H]2O)[C@H]1O (some centres undefined) ?
RESULT: y
